Counter-ions that a name gives are not always drawn.
melting point values, listed per item
endpoint: melting point

>>> observedmeasurement("COc1ccc(-c2sc3cc(OC)ccc3c2Oc2ccc(OCCN3CCCCC3)cc2)cc1 (as salt: hydrochloride) [Example 2]")
"216 to 220 °C"
>>> observedmeasurement("COc1ccc2c(Oc3ccc(OCCN4CCCCC4)cc3)c(-c3ccc(O)cc3)sc2c1 (as salt: hydrochloride) [Example 17]")
"215 to 217 °C"
>>> observedmeasurement("COc1ccc(-c2sc3cc(OC)ccc3c2Oc2ccc(OCCN3CCOCC3)cc2)cc1 (as salt: hydrochloride)")
"208 to 211 °C"
>>> observedmeasurement("COc1ccc(-c2sc3cc(OC)ccc3c2Oc2ccc(OCCN3CCCCC3)cc2)cc1 (as salt: oxalate) [Example 1]")
"197 to 200 °C (dec.)"
>>> observedmeasurement("COc1ccc2c(Oc3ccc(OCCN4CCCCC4)cc3)c(-c3ccc(O)cc3)sc2c1 [Example 16]")
"147 to 150 °C"
>>> observedmeasurement("Oc1ccc(-c2sc3cc(O)ccc3c2Oc2ccc(OCCN3CCCCCC3)cc2)cc1")
"125 to 130 °C"
>>> observedmeasurement("Oc1ccc(-c2sc3cc(O)ccc3c2Oc2ccc(OCCN3CCCC3)cc2)cc1")
"99 to 113 °C"
>>> observedmeasurement("CCN(CC)CCOc1ccc(Oc2c(-c3ccc(OC)cc3)sc3cc(OC)ccc23)cc1 (as salt: hydrochloride)")
"196 to 198 °C"
>>> observedmeasurement("Oc1ccc(-c2sc3cc(O)ccc3c2Oc2ccc(OCCN3CCOCC3)cc2)cc1 (as salt: hydrochloride)")
"157 to 162 °C"
>>> observedmeasurement("CCN(CC)CCOc1ccc(Oc2c(-c3ccc(O)cc3)sc3cc(O)ccc23)cc1")
"137 to 141 °C"
>>> observedmeasurement("COc1ccc(-c2sc3cc(OC)ccc3c2Oc2ccc(OCCN3CCCCCC3)cc2)cc1 (as salt: hydrochloride)")
"189 to 192 °C"
>>> observedmeasurement("COc1ccc(-c2sc3cc(OC)ccc3c2Oc2ccc(OCCN3CCCC3)cc2)cc1")
"95 to 98 °C"

The reported measurements were obtained from patent US20020013342A1.
